- System: A549 (PTK7 low)
- ASSAY_NAME: Cellular killing on PTK7 cell lines (Cell-Titer-Glo, 7 days)
- Assay type: cell-based
- PARTICULARS: Anti-proliferation
EXPERIMENTAL_ENDPOINT: Emax (%)
The reply should contain only the number, in %.

Asked: Please give the measured Emax for this molecule: ADC1-1: antibody: Cofetuzumab; "ADC Compounds used references" (conjugate, chains of the INN, looked up, drug conjugate) VH: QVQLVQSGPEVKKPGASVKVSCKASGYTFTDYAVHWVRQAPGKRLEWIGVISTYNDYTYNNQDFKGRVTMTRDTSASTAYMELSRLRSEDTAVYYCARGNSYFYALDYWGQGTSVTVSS VL: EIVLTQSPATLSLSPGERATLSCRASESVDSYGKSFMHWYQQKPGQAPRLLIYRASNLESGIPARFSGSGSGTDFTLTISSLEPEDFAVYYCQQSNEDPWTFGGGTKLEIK
Given back: 38.87
